What protein stability index was measured for each of the following?
assay.summary: protein stability index of a GFP-peptide fusion (yeast GPS) (PSI 1-4); higher = more stable; sorted into four equal gates, so the index is relative within each strain
measurement.context: ubr1∆
// print number alone

stdin: So what's the measured protein stability index for this one? VQGSTLAQLTSKLIPEV [RPS1A]
stdout: 2.76

stdin: # get_value(readout='protein stability index', item= AAGALFVSSGFDTSIKL [RPN14] )
stdout: 2.49

stdin: Look up protein stability index for this sequence: ESRAQNVFGQDNEDSDN [SWI3]
stdout: 3.2

stdin: # protein stability index lookup, item SGQLNFEIDGDVIHFED [PCI8]
stdout: 2.83

stdin: What does the record list as protein stability index for MKHLGRSEGNPVIGVFQ [FAS2] ?
stdout: 3.01

stdin: State the recorded protein stability index for this entry: ATPIPEEVQQAQTEIKL [RPS5]
stdout: 3.05

stdin: Given SPQAVSSFVRQELAKSI [PRE1] , state its recorded protein stability index.
stdout: 2.31

stdin: What protein stability index value was documented for this sequence, GGQTKPVFHKKAKTTKK [RPL42A] ?
stdout: 2.89

stdin: Sample LIYHLKDCAEVDSRTKI [IRR1] — what was its protein stability index?
stdout: 3.23

stdin: Item LDNFQKSVEKTMIKKTT [SMC3] has what recorded protein stability index?
stdout: 3.17

stdin: Given the sequence TKMFEDRREKAERTMSK [SMC2] , what is its reported protein stability index?
stdout: 3.54

stdin: Look at this sequence and give its reported protein stability index. QWFLQYQNQFVEFCRNI [YML103C/NUP188]
stdout: 2.24

stdin: Fill in: protein stability index of WKYEDVVAKLEDKRKVR [RPL16B] is ___
stdout: 2.02

stdin: Which protein stability index value is on record for KSLDKKIAKRRQVYKPV [POP3] ?
stdout: 3.5

stdin: // returns reported protein stability index for input FRISLGLPVGAIMNCAD [RPL23A]
stdout: 1.7

stdin: Name the reported protein stability index value associated with the sequence FETFLVDVNNKFIALCE [SIN4]
stdout: 3.1

stdin: Name the recorded protein stability index for TENDIKALQSIGQLIGE [RPT4] .
stdout: 3.23

stdin: Which protein stability index value belongs to LWSGKQILSVAIPNGIH [RPO21] ?
stdout: 1.71

stdin: Reported protein stability index for AQWERSKLSQEFLYPHL [SNF12] : what is it?
stdout: 3.08

stdin: Query: protein stability index; subject: PTFTFGSSALADNKEDV [YLR335W/NUP2]
stdout: 3.09

stdin: I would be grateful if you could share the reported protein stability index for KITDKEDLLHYIEEKHP [POP4] .
stdout: 3.24

stdin: Would you mind telling me what protein stability index value was observed for RSQDQENPAFLPGTNNN [SEC65] ?
stdout: 2.8

stdin: Given the sequence LRLTDVTNSLSNEEKEK [GAL11] , what is its reported protein stability index?
stdout: 3.3

stdin: Give the measured protein stability index of LNNLPYKNEDVTALLEQ [YCS4] .
stdout: 2.99

stdin: Fill in: protein stability index of ILQNEHDYWNKIMQSIS [SRB4] is ___
stdout: 2.35

stdin: Form field: reported protein stability index of KEVIELPVKHPELFESL [RPT6]
stdout: 3.09

stdin: Endpoint output: protein stability index of KDHLLGRLASTIAKQVL [RPL16B] . Value?
stdout: 1.3

stdin: // lookup protein stability index for PSTSITLAERQQLAYDL [RPN9]
stdout: 2.94

stdin: Please give the measured protein stability index for this sequence: TKENLEVSGENVVEADL [QCR2]
stdout: 2.8

stdin: Entry QSVEEKVLEMKNLKDTA [YIL149C/MLP2] : reported protein stability index = ?
stdout: 2.78
